biological target: Ataxin-2 (Homo sapiens) (UniProt Q99700); test: qHTS for Inhibitors of ATXN expression.; type: functional
Sequence (Q99700 whole entry): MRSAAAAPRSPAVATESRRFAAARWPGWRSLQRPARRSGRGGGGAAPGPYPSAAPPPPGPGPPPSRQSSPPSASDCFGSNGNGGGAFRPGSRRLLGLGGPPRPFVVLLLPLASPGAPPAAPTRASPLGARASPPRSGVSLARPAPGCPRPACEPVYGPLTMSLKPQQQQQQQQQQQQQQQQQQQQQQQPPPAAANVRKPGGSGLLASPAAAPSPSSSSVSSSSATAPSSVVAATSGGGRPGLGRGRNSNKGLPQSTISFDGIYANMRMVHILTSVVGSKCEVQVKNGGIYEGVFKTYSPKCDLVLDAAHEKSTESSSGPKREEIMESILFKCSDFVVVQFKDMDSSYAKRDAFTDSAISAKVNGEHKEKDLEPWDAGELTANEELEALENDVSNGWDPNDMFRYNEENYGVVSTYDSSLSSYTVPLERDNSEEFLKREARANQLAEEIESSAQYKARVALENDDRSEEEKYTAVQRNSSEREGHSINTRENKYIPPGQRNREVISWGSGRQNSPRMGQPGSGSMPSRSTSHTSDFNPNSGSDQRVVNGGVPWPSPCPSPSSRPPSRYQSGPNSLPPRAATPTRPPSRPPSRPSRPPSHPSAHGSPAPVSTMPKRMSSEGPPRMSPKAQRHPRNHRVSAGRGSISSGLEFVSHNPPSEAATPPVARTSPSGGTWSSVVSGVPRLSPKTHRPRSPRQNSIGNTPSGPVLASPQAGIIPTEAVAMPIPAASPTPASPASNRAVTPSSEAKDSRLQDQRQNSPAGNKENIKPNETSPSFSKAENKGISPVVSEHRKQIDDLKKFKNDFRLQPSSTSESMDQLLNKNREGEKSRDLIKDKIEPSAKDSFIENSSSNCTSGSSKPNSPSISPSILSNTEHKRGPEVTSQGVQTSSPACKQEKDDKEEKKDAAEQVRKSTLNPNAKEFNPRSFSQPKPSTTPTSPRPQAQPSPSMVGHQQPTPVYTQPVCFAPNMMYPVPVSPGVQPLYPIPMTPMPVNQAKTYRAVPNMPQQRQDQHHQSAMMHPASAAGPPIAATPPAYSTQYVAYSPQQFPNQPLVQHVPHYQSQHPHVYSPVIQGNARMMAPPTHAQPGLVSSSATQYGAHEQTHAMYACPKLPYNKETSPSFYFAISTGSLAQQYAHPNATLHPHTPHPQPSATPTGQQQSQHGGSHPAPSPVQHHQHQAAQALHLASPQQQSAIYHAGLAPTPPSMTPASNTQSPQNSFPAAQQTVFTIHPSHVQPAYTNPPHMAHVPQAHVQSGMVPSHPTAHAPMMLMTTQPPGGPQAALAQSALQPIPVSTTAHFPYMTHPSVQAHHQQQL
In all, about 400,000 compounds went through this assay and about 2,100 (0.53%) were called active. Roughly 14% stayed inconclusive and do not appear here. Only a selection was taken, and actives are over-represented in it overall.
Assay metric: Potency

Before answering, review these 4 worked examples.
{"columns": ["Compound", "Potency"],
 "data": [
  ["CC(C)Cc1ccc(C(C)CC2=CCC(CN(C)C)C2=O)cc1 (stereo not given)", "22.4 µM (active)"],
  ["CC(=O)c1ccc(OCc2cc(C(=O)N3CCC(c4ccncc4)CC3)no2)cc1", "inactive"],
  ["Cc1cccc(C2=NN(c3ccccc3)[C@H](CO)[C@H]2c2ccccc2)c1", "inactive"],
  ["CC(CNC(=O)c1cc(COc2ccc3ncccc3c2)on1)c1ccccc1 (stereo not given)", "44.7 µM (active)"]
]}

Now turn to the next compound.
Please report the measured Potency for CC(=O)N1CCc2ccc(S(=O)(=O)N3CCc4ccccc43)cc21
inactive

---

biological target: Ataxin-2 (Homo sapiens) (UniProt Q99700); experiment: qHTS for Inhibitors of ATXN expression.; type: functional
Among all 400,000 compounds or so, about 2,100 (0.53%) were called active. Inconclusive results (about 14%) are left out. How the calls were made is not given here. The sample holds actives, similar compounds and a random draw of the others, so the mix is not that of the screen.
Form entry, call: pick from active, inactive

Solved cases (6 shown):
{"columns": ["Molecule", "Label class"],
 "data": [
  ["O=C(NN=C1CCCC1)c1[nH]c2ccc(Cl)cc2c1-c1ccccc1", "inactive"],
  ["COc1ccc2c(Sc3ccccc3)c(C(=O)N3CCC(C)CC3)[nH]c2c1", "active"],
  ["Nc1ccc(Br)c2cccnc12", "inactive"],
  ["CCCCn1c(=N)n(CC(=O)c2ccc(Br)s2)c2ccccc21", "active"],
  ["CC1(C)CC(=O)C2=C(C1)c1c(ccc3ccccc13)NC2c1ccc(C(=O)O)cc1 (configuration not stated)", "inactive"],
  ["CCN(CC)S(=O)(=O)c1cc(NC(=O)C2CC(=O)N(Cc3ccccc3)C2)ccc1Cl (configuration not stated)", "inactive"]
]}

Next:
Assay outcome for Cc1[nH]c2ccccc2c1C(=O)CSc1ccc(Cl)cc1 : what was it?
inactive

---

biological target: Ataxin-2 (Homo sapiens); experiment: qHTS for Inhibitors of ATXN expression.; format: functional
In all, about 400,000 compounds went through this assay and about 2,100 (0.53%) were called active. Another 14% or so got no clear call; they are omitted. No rule for the calls is given here. Only a selection was taken, and actives are over-represented in it overall.
Respond using exactly one of the listed classes: active, inactive

Here's what some known entries look like.
{"columns": ["Compound", "Label class"],
 "data": [
  ["Cc1ccc(-c2cc(C#N)c(=O)n(Cc3c(Cl)cccc3Cl)c2)cc1", "inactive"],
  ["Cc1cc(/C=C(\\C#N)C(=O)NCc2cccs2)c(C)[nH]1", "inactive"],
  ["Cc1cc(Br)ccc1SCC(=O)OCC(O)=C(C#N)c1nc2ccccc2[nH]1", "active"],
  ["O=C(CSc1nc(-c2ccc(F)cc2)[nH]c1-c1ccc(F)cc1)Nc1ccc2c(c1)OCCO2", "active"]
]}

We next turn to a different compound, shown below.
Dear colleague, could you share the recorded outcome for COc1ccc(-c2[nH]c(-c3ccc(C)cc3)nc2SCC(=O)NCc2ccco2)cc1OC when you have a moment?
inactive
